- Test system: CAKI-1
- PROTOCOL DESCRIPTION: NCI tumour cell line growth inhibition, 48 h
The source made the active and inactive calls. Cut-off read from the data, not from the text of the source: active = GI50 up to about 1.1 µM and inactive = higher.
MEASUREMENT LABEL: GI50

Task item: Form field: GI50 recorded for O=S(=O)(c1ccccc1)C1CC(c2nc3ccccc3[nH]2)=NO1 (stereo not given) with CAKI-1 (enter value)
Reply: 97.7 µM (inactive)

Task item: Form field: GI50 recorded for CN1CC2=C(N=C(S)NC2c2ccccc2)/C(=C/c2ccccc2)C1 (stereo not given) with CAKI-1 (enter value)
Reply: > 100 µM (inactive)

Task item: Form field: GI50 recorded for O=C(Nc1c(O)[nH]c(=S)[nH]c1=O)c1ccco1 with CAKI-1 (enter value)
Reply: > 100 µM (inactive)

Task item: Form field: GI50 recorded for CC(=O)OC[C@H]1[C@@H]2C(CC[C@]13CO3)OC(=O)CC(C)[C@]2(C)CCc1ccoc1 (stereo not given in full) with CAKI-1 (enter value)
Reply: > 100 µM (inactive)

Task item: Form field: GI50 recorded for Nc1ncnc2c1ccn2CC=C(CO)CO with CAKI-1 (enter value)
Reply: > 100 µM (inactive)

Task item: Form field: GI50 recorded for CCN1c2ccccc2NC(=S)c2c(-c3ccccc3)n[nH]c21 with CAKI-1 (enter value)
Reply: 52.8 µM (inactive)

Task item: Form field: GI50 recorded for CCOc1ccc(-c2nc(-c3oc4ccccc4c(=O)c3OC(C)=O)cs2)cc1 with CAKI-1 (enter value)
Reply: > 10 µM (inactive)

Task item: Form field: GI50 recorded for O=C(CCNC12CC3CC(CC(C3)C1)C2)c1ccccc1 with CAKI-1 (enter value)
Reply: > 10 µM (inactive)

Task item: Form field: GI50 recorded for COc1cc2nc(NCCCCCNC(=O)c3ccco3)nc(N)c2cc1OC with CAKI-1 (enter value)
Reply: 42.6 µM (inactive)

Task item: Form field: GI50 recorded for CCOC(=O)c1nnsc1NC(=O)NN with CAKI-1 (enter value)
Reply: > 100 µM (inactive)

Task item: Form field: GI50 recorded for CCC(CON(C)c1ccccc1)(SC)SC with CAKI-1 (enter value)
Reply: > 100 µM (inactive)

Task item: Form field: GI50 recorded for O=c1oc2ccc3ccccc3c2cc1-c1nc2ccc([N+](=O)[O-])cc2o1 with CAKI-1 (enter value)
Reply: > 44.7 µM (inactive)

Task item: Form field: GI50 recorded for NC(Cc1c2ccccc2cc2ccccc12)C(=O)O (stereo not given) with CAKI-1 (enter value)
Reply: 62.2 µM (inactive)

Task item: Form field: GI50 recorded for O=C(OCc1ccccc1C1CSCSC1)c1cc(C(=O)OCc2ccccc2C2CSCSC2)c(C(=O)OCc2ccccc2C2CSCSC2)cc1C(=O)OCc1ccccc1C1CSCSC1 with CAKI-1 (enter value)
Reply: > 100 µM (inactive)

Task item: Form field: GI50 recorded for CCOC(=O)[C@H]1Nc2ccc(Cl)cc2[C@H]2c3ccccc3O[C@H]21 with CAKI-1 (enter value)
Reply: > 100 µM (inactive)

Task item: Form field: GI50 recorded for O=C1Nc2ccc(Br)cc2/C1=N/c1ccc2c(c1)OCO2 with CAKI-1 (enter value)
Reply: 20.3 µM (inactive)

Task item: Form field: GI50 recorded for C[C@]12C=CC(=O)C=C1[C@@H](F)C[C@H]1[C@@H]3CC[C@](O)(C(=O)CO)[C@@]3(C)C[C@H](O)[C@@]12F with CAKI-1 (enter value)
Reply: > 100 µM (inactive)

Task item: Form field: GI50 recorded for O=C1c2c(c3c4ccccc4[nH]c3c3[nH]c4ccccc4c23)C(=O)N1Cc1ccccc1 with CAKI-1 (enter value)
Reply: 3.65 µM (inactive)

Task item: Form field: GI50 recorded for CC(C)[C@H](C)/C=C/[C@@H](C)C1CC[C@H]2[C@@]34C=C[C@]5(C[C@@H](O)CC[C@]5(C)[C@H]3CC[C@]12C)OO4 (stereo not given in full) with CAKI-1 (enter value)
Reply: 22.5 µM (inactive)

Task item: Form field: GI50 recorded for CC1=NN(c2nc(N)nc(/C(C#N)=C\c3ccc([N+](=O)[O-])s3)n2)C(C)(C)C1 with CAKI-1 (enter value)
Reply: 1.16 µM (inactive)
